All values here come from patent US10745384B2.

- Target System: human αVβ6 (Homo sapiens, UniProt P06756+P18564)
- Sequence (P06756 31-992 limits assumed): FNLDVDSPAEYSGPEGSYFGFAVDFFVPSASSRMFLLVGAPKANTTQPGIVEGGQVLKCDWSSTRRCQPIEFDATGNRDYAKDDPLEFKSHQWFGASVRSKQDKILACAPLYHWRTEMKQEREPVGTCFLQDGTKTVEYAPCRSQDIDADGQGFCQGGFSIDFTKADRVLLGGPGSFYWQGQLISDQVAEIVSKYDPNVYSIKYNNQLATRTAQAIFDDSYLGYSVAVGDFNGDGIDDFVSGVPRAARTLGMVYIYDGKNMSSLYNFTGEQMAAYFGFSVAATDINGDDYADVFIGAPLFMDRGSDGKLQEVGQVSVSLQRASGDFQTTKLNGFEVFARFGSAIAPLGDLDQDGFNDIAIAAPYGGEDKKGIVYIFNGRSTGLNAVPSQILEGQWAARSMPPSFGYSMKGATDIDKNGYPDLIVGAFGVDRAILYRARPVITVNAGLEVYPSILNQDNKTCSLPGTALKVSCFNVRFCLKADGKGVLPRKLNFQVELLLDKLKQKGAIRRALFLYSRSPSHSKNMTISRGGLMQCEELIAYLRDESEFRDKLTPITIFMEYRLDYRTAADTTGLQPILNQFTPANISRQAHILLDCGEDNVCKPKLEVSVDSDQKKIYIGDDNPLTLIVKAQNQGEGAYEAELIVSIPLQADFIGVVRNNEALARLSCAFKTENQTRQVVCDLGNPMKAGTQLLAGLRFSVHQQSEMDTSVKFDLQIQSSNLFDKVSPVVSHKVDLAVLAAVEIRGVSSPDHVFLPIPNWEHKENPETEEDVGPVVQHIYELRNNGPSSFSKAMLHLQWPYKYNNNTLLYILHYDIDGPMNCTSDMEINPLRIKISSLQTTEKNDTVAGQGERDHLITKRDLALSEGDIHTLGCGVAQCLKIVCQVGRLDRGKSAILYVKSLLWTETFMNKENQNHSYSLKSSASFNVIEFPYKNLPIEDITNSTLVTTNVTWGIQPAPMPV
- Sequence (P18564 22-707 limits assumed): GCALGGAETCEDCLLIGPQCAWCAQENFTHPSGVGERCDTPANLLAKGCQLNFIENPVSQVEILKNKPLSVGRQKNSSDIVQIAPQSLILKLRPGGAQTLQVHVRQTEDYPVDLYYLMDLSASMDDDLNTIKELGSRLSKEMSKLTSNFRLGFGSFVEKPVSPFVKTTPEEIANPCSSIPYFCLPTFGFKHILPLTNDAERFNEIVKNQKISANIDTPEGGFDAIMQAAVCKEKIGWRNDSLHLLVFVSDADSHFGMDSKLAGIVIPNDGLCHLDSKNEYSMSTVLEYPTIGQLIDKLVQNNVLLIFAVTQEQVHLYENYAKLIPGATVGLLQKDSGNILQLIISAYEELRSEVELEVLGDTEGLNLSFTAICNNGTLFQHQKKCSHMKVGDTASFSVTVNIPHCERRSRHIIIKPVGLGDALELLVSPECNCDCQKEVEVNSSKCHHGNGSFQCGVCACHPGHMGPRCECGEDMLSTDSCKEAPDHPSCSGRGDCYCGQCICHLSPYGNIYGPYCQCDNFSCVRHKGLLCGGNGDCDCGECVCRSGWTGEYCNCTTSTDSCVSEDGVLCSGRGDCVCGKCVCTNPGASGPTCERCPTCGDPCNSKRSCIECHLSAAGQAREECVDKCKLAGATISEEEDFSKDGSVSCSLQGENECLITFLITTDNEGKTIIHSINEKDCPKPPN
- Method Notes: human αVβ6 HTRF binding assay
- Particulars: recombinant human αVβ6 integrin, FITC-conjugated fibronectin
Where a name gives a salt, the structure may show the parent alone.
Metric: IC50 (nM)

O=C(O)CC(c1cnn(-c2ccncc2)c1)n1ncc2cc(OCCc3ccc4c(n3)NCCC4)ccc21 (stereo not drawn): 3.8
COc1ccc(C(CC(=O)O)n2ncc3cc(OCCc4ccc5c(n4)NCCC5)ccc32)cn1 (stereo not drawn) [Example 34, TFA]: 12
CS(=O)(=O)c1cncc([C@@H](CC(=O)O)n2ncc3cc(OCCc4ccc5c(n4)NCCC5)ccc32)c1: 540
O=C(O)C[C@@H](c1cncc(CO)c1)n1ncc2cc(OCCc3ccc4c(n3)NCCC4)ccc21: 14
COc1ccc(C(CC(=O)O)n2ncc3cc(CCc4ccc5c(n4)NCCC5)ccc32)cn1 (stereo not drawn): 110

[P] COc1ccc([C@H](CC(=O)O)n2cc3ccc(CCC4CCc5cccnc5N4)cc3n2)cn1 (stereo partly drawn)
[Q] O=C(O)CCn1ncc2cc(OCCc3ccc4c(n3)NCCC4)ccc21
[R] O=C(O)C[C@@H](c1cnc2ccccc2c1)n1cc2ccc(CCCC3CCc4cccnc4N3)cc2n1 (stereo partly drawn)
Lookup: Put the items in sequence by IC50, from largest down. Form field (ranking): labels in requested order.
Found: Q, R, P
